Would you mind telling me the reported growth of each entry?
system: OVCAR-4 ovarian; assay: NCI-60 one-dose screen, 48 h (100 = growth as untreated, 0 = no growth, -100 = all killed); settings: 10 µM
Compounds without any hit were thinned out: in the full panel of roughly 83,000, 20% have a hit.
Give bare numbers, in %.

A selection of reference data follows.
* Nc1nnc(-c2c[nH]c3ncccc23)c(-c2c[nH]c3ccc(Br)cc23)n1 | 55.7
* CN1CCc2c(sc3ncnc(N/N=C/c4ccc5ccccc5c4)c23)C1 | 73.9
* COc1cccc(/C=N/NC(=O)c2ccc3nc(-c4ccc(Cl)cc4)[nH]c3c2)c1O | -36.3

Please look at the items below and tell me growth for each one, in order.
1. O=C(NCCCCC(c1ccc(F)cc1)c1ccc(F)cc1)NCCCc1cccnc1
2. Cc1noc2c(Cc3ccc([N+](=O)[O-])cc3)nn(CC(=O)N/N=C/c3ccc(Cl)cc3)c(=O)c12

20.6
7.98

Batch request: growth per item, same order as input.
1. COc1ccc2[nH]c(O)c(N=NC(=O)COc3ccc(NC(=O)Nc4ccc(Cl)cc4)cc3)c2c1
2. CN(C)c1ccc(/C=C/C(=O)c2ccc(NC(=O)CN3C(=O)NC(C)(c4ccccc4)C3=O)cc2)cc1 (configuration not stated)

[-21.6, 55.4]

* * *

test system: A549/ATCC NSCLC; experiment: NCI-60 one-dose screen, 48 h (100 = growth as untreated, 0 = no growth, -100 = all killed); conditions: 10 µM
About 83,000 compounds went through this panel and 20% of them were active in at least one assay; those are over-represented in the sample as a whole.
measured_parameter: growth (%)
Give bare numbers, in %.

- Cc1ccn2c(C(=O)c3ccc(Br)cc3)cc(-c3cc(-c4ccc(N(C)C)cc4)c(C#N)c(N)n3)c2c1: 70.2
- N#Cc1c(-c2ccc(F)cc2)nc(SCc2ccc(F)cc2)nc1N1CCOCC1: 69
- O=C1CCC(N2Cc3c(NCc4ccc(-c5ccccc5)cc4)cccc3C2=O)C(=O)N1 (centres undefined): 71.6

Return reported growth; argument: COc1ccc(-c2ccc(/C=N/NC(=O)c3[nH]c4ccc(Br)cc4c3-c3ccccc3)s2)cc1 71.9

* * *

test system: K-562 leukemia; assay: NCI-60 one-dose screen, 48 h (100 = growth as untreated, 0 = no growth, -100 = all killed); settings: 10 µM
This is part of a sample that, as a whole, favours compounds with a hit. Of some 83,000 tested, about 20% had one in any assay.
Assignment: determine reported growth for the given compounds.
One number for each entry, in %.

Below, each entry is followed by its recorded growth result.
• O=C(CSc1nnc(-c2c[nH]c3ccccc23)n1-c1ccccc1)Nc1ccc(C(=O)/C=C/c2ccc(Cl)cc2)cc1 = 59.4
• CC(=O)Nc1ccc(-c2cn(-c3cccc(C(=O)Nc4ccc(Cl)c(C(F)(F)F)c4)c3)nn2)cn1 = 4.92
• O=c1[nH]c2ccccc2cc1CSc1ccc(Nc2nccc(-c3ccc(C(F)(F)F)cc3)n2)cc1 = 54.9
• COc1cc(/C=C/C(=O)c2ccc(S(=O)(=O)NCCNc3nc(Nc4ccc(F)cc4)nc(N(C)C)n3)cc2)cc(OC)c1OC = 4.79
• COC(=O)C[C@](O)(CCCC(C)(C)O)C(=O)O[C@H]1C(OC)=C[C@@]23CCC(=O)N2CCc2cc4c(cc2[C@@H]13)OCO4 = 96.7

I'm hoping you can list growth for every compound here, please.
1. CC(=O)OC[C@@]1(C)C2CC[C@]3(C)C(CC=C4C5CC(C)(C)CC[C@]5(C(=O)Nc5ccccc5)CC[C@]43C)[C@@]2(C)C[C@@H](OC(C)=O)[C@@H]1OC(C)=O (stereo partly drawn)
2. CCOC(=O)C(Cc1ccccc1)N1C(=O)/C(=C/N2N=C(c3ccc(OC)cc3)CC2c2ccc3ccccc3c2)SC1=S (stereo not drawn)
3. COc1ccc(OC)c(/C=N/NC(=O)c2ccc3nc(-c4ccc(Cl)cc4)[nH]c3c2)c1
4. O=C1N/C(=N\c2nccs2)S/C1=C\c1cccs1
5. COc1ccc(N2N=C(c3ccc4c(c3)OCCO4)CC2c2cccc(NC(=O)CCCNS(=O)(=O)c3ccc(F)cc3)c2)cc1 (stereo not drawn)
6. Cc1cc(C)nc(NS(=O)(=O)c2ccc(N/C(N)=N/c3nccc(-c4ccccc4)n3)cc2)n1
7. O=C(NO)c1ccc(-c2nc3ccc4[nH]ncc4c3c3c2CCCC3)cc1

1. 12.7
2. 11.9
3. 47.1
4. 20.1
5. 56
6. 49.3
7. 10.1

Requested field: growth. Item: [2H]C([2H])([2H])Oc1ccc2ncc(C#Cc3cncc(C(=O)Nc4ccc(CN5CCN(C)CC5)c(C(F)(F)F)c4)c3)n2n1 1.31

* * *

system: HS 578T breast; assay: NCI-60 one-dose screen, 48 h (100 = growth as untreated, 0 = no growth, -100 = all killed); settings: 10 µM
About 83,000 compounds went through this panel and 20% of them were active in at least one assay; those are over-represented in the sample as a whole. Activity calls are given as the source filed them. Rule for the calls: active = growth percent below 10; inactive = the rest.
measured_parameter: growth

Would you please look over these solved cases?
* O=C(c1ccccc1)n1ccc(-c2cc3cc(Br)ccc3oc2=O)n1 | 48.5% (inactive)
* C/C(=N\N=C\c1ccc(Cl)c([N+](=O)[O-])c1)c1ccc2c(c1)Nc1ccccc1S2 | 0.197% (active)

Please state growth for every compound in the list that follows.
1. Cc1cc(C)nc(NS(=O)(=O)c2ccc(N/C(N)=N/c3nccc(-c4cccs4)n3)cc2)n1
2. O=C(NO)c1ccc(CNC(=O)[C@H]2Cc3c([nH]c4ccccc34)[C@H](c3ccccc3)N2)cc1

["77.7% (inactive)", "17.3% (inactive)"]

State recorded growth for all listed compounds.
1. COc1ccc2[nH]cc(/C=N/Nc3cccc(Cl)n3)c2c1
2. Cc1ccc2nc(COc3ccc(C(=O)NNC(=S)NCCc4ccccc4)cc3)[nH]c2c1

["49.9% (inactive)", "41.1% (inactive)"]

* * *

test system: SN12C renal; assay: NCI-60 one-dose screen, 48 h (100 = growth as untreated, 0 = no growth, -100 = all killed); settings: 10 µM
About 83,000 compounds went through this panel and 20% of them were active in at least one assay; those are over-represented in the sample as a whole.
measured_parameter: growth (%)
Give bare numbers, in %.

Recorded growth, per entry:
* Cc1ccc(-c2nc(Nc3ccccc3C(=O)O)c3ccccc3n2)cc1 | 22.2
* O=C(c1ccc(Cl)cc1)C1[C@H](c2ccc(Br)cc2)[C@@H](c2ccccc2)NC12C(=O)Nc1ccccc12 (stereo partly specified) | -78.1
* COc1cc(Cn2c(C(F)(F)F)cc3c(Cl)ncnc32)ccn1 | 51.3
* CC(=O)Nc1nc(-c2ccc(N3CCN(C)CC3)c(NS(=O)(=O)c3ccc(C(F)(F)F)cc3)c2)cs1 | 13.7
* CC(=O)Nc1ccc(-n2cnc3cc(-c4ccc(O)cc4)ccc32)cc1C | 40.4

State the recorded growth for this entry: O=C(Nc1ccc(F)c(Cl)c1)c1cc(-c2ccc(F)cc2F)ccc1O -17.3

* * *

System: SF-539 CNS
Test: NCI-60 one-dose screen, 48 h
Conditions: 10 µM
Experimental: Cells are grown in 96 well plates and exposed to the test compound for 48 hours. Compounds are tested at a single concentration, which is 10^-5 M for most compounds. The reported endpoint is percent growth (GI% or GIPRCNT), where numbers from 0 - 100% represent growth inhibition, and numbers from -100% - 0 represent cell death. For example, a value of 40 represents 60% growth inhibition. A value of 0 means no net growth occurred over the course of the experiment. […]
The panel holds about 83,000 compounds, 20% with a hit somewhere; the sample as a whole holds those more often. Activity calls are given as the source filed them. Rule for the calls: active = growth percent below 10; inactive = the rest.
In this exercise, the only acceptable responses are true (1) (active), false (0) (inactive)

* CC(C)C(=O)Nc1ccc(C(=O)NC(=S)Nc2ccc(C(=O)O)cc2)cc1 | false (0)

Could you please tell me the result logged for CN1CCCN(Cc2ccc(C(=O)Nc3cccc(Nc4ccc5c(O)cccc5n4)c3)cc2C(F)(F)F)CC1 in this assay? true (1)

What is the recorded call for this compound in the test? CN1CCO/C1=C(/NC(=O)c1ccc(Cl)cc1)[P+](c1ccccc1)(c1ccccc1)c1ccccc1 false (0)

Status in this test for O=C(CNc1nc(-c2ccccc2)cs1)Nc1cccc([N+](=O)[O-])c1 ? true (1)

For this compound, state the assay outcome: CC[C@]12C=CCN3CC[C@@]4(c5cc(C#CCNc6ccc(C)c(Nc7nccc(-c8cccnc8)n7)c6)c(OC)cc5N(C)[C@H]4[C@@](O)(C(=O)OC)[C@@H]1OC(C)=O)C32 (some centres undefined) true (1)

What was the test verdict on CC1(C)CC[C@]2(C(=O)O)CC[C@]3(C)C(=CC[C@@H]4[C@@]5(C)C/C(=C/c6ccncc6)[C@H](O)C(C)(C)[C@@H]5CC[C@]43C)[C@@H]2C1 ? false (0)

# lookup: test call for Nc1cc(-c2cccc(C(=O)NCc3ccc4c(c3)OCO4)c2)ccn1 false (0)

Please indicate how the test categorized Nc1nnc(-c2c[nH]c3ncccc23)c(-c2c[nH]c3ccc(Br)cc23)n1 . false (0)

How was CCN1CCN(c2ccc(NC(=O)Nc3ccc(-c4cc(C(=O)NC)c5ncccc5n4)cc3)cc2C(F)(F)F)CC1 classified in this test? true (1)

Outcome? CC(=O)Nc1nc(-c2ccc(N3CCN(C)CC3)c(NS(=O)(=O)c3cccc4c(N(C)C)cccc34)c2)cs1 false (0)

Query: recorded result category for COc1ccc(-c2c(N)c(=O)n(C)c3ccccc23)cc1 in this test false (0)

What was the test verdict on Cc1cc(C(F)(F)F)ccc1C(=O)Nc1sc2c(c1C#N)CCC(=O)C2 ? true (1)

Please state the recorded outcome for this compound: Nc1nc(Nc2ccc(Cl)cc2)n(Cc2cccc(Br)c2)n1 true (1)

Each compound tested received a call. Report the one for CC1(C)CC[C@]2(C(=O)Nc3ccccc3)CC[C@]3(C)C(=CC[C@@H]4[C@@]5(C)CC[C@H](N)C(C)(C)[C@@H]5CC[C@]43C)[C@H]2C1 . false (0)

Check the results log: what was the call for COc1ccc(OC)c(/C=N/NC(=O)c2ccc3nc(-c4ccc(Cl)cc4)[nH]c3c2)c1 ? false (0)

What was the test verdict on Clc1ccc(/C=N/Nc2ncnc3sc4c(c23)CCN(Cc2ccccc2)C4)cc1 ? true (1)

Identify the outcome logged in this assay for the compound shown: Cc1cc(C)nc(NS(=O)(=O)c2ccc(N/C(N)=N/c3nccc(-c4cccs4)n3)cc2)n1 false (0)

Just curious, what result did O=C(N=Nc1c(O)[nH]c2ccc(Br)cc12)c1ccc2nc(-c3ccccc3)[nH]c2c1 get here? true (1)

// return assay outcome for CN1CCCN(Cc2ccc(C(=O)Nc3cccc(Nc4ccc5cc(O)ccc5n4)c3)cc2C(F)(F)F)CC1 false (0)

These entries and their values trace back to PubChem BioAssay (NCI).
